- PROTOCOL SUMMARY: Determination of water solubility in phosphate buffer
- Type: physicochemical
- CONDITION INFO: aqueous buffer, thermodynamic from solid; phosphate buffer pH 7.4, room temperature, 24 hours
- Excerpt: Experimental instruments: 96-well filter plate (MSHVN4510 or MSHVN4550, Millipore); electronic digital display vortex mixer (MS3 Digital, IKA); multi-purpose vacuum pump (circulating water type, SHB-111, Zhengzhou Greatwall Scientific Industrial and Trade Co., Ltd.); balance (XSLT05, Mettler-Toledo); comfortable mixer (Eppendorf AG 22331 Hamburg, Eppendorf); liquid chromatography (LC-3AD, Shimadzu); mass spectrometry (API4000, Applied Biosystems, USA); sample injector (Anylytics AG System, CTC). […]
MEASUREMENT NAME: solubility at 24 h (µg/mL)
# output: bare number, implied unit µg/mL

Answered cases to consult:
CCC(C)C(C(=O)OC)N(C)C(=O)OCOc1ccc([N+](=O)[O-])c2cccnc12 (stereo not shown): 39.8
O=C(CCCCCCCO)OCOc1ccc([N+](=O)[O-])c2cccnc12: 39.1
CC(OC(=O)C(C)C)Oc1ccc([N+](=O)[O-])c2cccnc12 (stereo not shown): 105
CC(=O)N[C@@H](CC(C)C)C(=O)NCC(=O)OCOc1ccc([N+](=O)[O-])c2cccnc12: 205
O=C(OCOc1ccc([N+](=O)[O-])c2cccnc12)C1CCC1: 28.4

q: Which solubility at 24 h value is on record for CCC(CC)C(=O)OC(C)Oc1ccc([N+](=O)[O-])c2cccnc12 (stereo not shown) ?
a: 6.62

q: Which solubility at 24 h value is on record for O=C1CCCC(Oc2ccc([N+](=O)[O-])c3cccnc23)O1 (stereo not shown) ?
a: 19.9

q: Which solubility at 24 h value is on record for `COC(=O)CNC(=O)OCOc1ccc([N+](=O)[O-])c2cccnc12` ?
a: 45.5

q: Which solubility at 24 h value is on record for `O=[N+]([O-])c1ccc(O)c2ncccc12` ?
a: 352
